Parameter TGI: see the listing below.
tested on: NCI-H226 lung; assay: NCI tumour cell line growth inhibition, 48 h
readout.kind: TGI

# compound, target.of.assay, result
measured = [
    ("O=c1oc2ccccc2n1CCCn1c(=O)oc2ccccc21", "NCI-H226 lung", "> 100 µM"),
    ("CCCCCC(=C/c1ccccc1)/C=N/N=C(N)N", "NCI-H226 lung", "5.51 µM"),
    ("CC(C)C1=CC23CCC4C(C)(C(=O)O)CCCC4(C)C2CC1C1C(=O)N(c2cccc(N4C(=O)C5C6CC7C8(C)CCCC(C)(C(=O)O)C8CCC7(C=C6C(C)C)C5C4=O)c2)C(=O)C13 (stereo not drawn)", "NCI-H226 lung", "32.5 µM"),
    ("CCCCCCC(O)C(O)CCC(O)C1CCC(CCCCC(O)CC2=CC(C)OC2=O)O1 (stereo not drawn)", "NCI-H226 lung", "34.7 µM"),
    ("COc1ccc2c(c1)C(=O)[C@@](Nc1ccc(C=O)cc1)(OC)[C@@](OC)(c1ccc([N+](=O)[O-])cc1)O2", "NCI-H226 lung", "> 10 µM"),
    ("O=C(O)CNC(=O)C1NC(C(F)(F)F)(C(F)(F)F)OC1(C(F)(F)F)C(F)(F)F (stereo not drawn)", "NCI-H226 lung", "> 100 µM"),
    ("COc1cc(C(=O)N(C(=S)OC23CC4CC(CC(C4)C2)C3)c2ccccc2)cc(OC)c1OC", "NCI-H226 lung", "> 100 µM"),
    ("CCCCCCC/C=C1\\CCC(CN(C)C)C1=O (stereo not drawn)", "NCI-H226 lung", "48.4 µM"),
    ("CCSc1nc(C)nc2c1sc1nc3ccccc3n12", "NCI-H226 lung", "> 100 µM"),
    ("Cc1ccc2c(=O)c(C(=O)NNC(=S)NC3CCCCC3)c[nH]c2n1", "NCI-H226 lung", "> 100 µM"),
    ("O=S(=O)(NCCNc1cc(-c2cn(-c3ccccc3)nc2-c2cccc(O)c2)ccn1)c1ccc(Br)cc1", "NCI-H226 lung", "15 µM"),
    ("Nc1nc(CC2(O)CCCCC2)cc(-c2ccccc2)n1", "NCI-H226 lung", "> 61.9 µM"),
    ("CCCCn1c(C)c2c(c1C)C(=O)N(CCN1CCN(c3ccccc3Cl)CC1)C2=O", "NCI-H226 lung", "> 100 µM"),
    ("CN(C)c1c(C2CC(O)C(CO)O2)c(=O)c1=O (stereo not drawn)", "NCI-H226 lung", "> 100 µM"),
    ("COc1cc2c3cc1Oc1c(OC)c(OC)cc4c1C(Cc1ccc(O)c(c1)-c1cc(ccc1OC)CC3N(C)CC2)N(C)CC4 (stereo not drawn)", "NCI-H226 lung", "> 100 µM"),
    ("C[C@H]1[C@H](C)CC[C@]2(C(=O)OC3OC(CO)C(O)C(O)C3O)CC[C@]3(C)C(=CC[C@@H]4[C@@]5(C)C[C@@H](O)[C@@H]6OC(=O)c7cc(O)c(O)c(O)c7-c7c(cc(O)c(O)c7O)C(=O)OC[C@]6(CO)[C@@H]5CC[C@]43C)[C@H]12 (stereo partly drawn)", "NCI-H226 lung", "> 100 µM"),
    ("Cc1ccccc1C[P+](c1ccccc1)(c1ccccc1)c1ccccc1", "NCI-H226 lung", "> 100 µM"),
    ("COc1ccc2c(c1OC)C(C=C(c1ccccc1)c1ccccc1)CN(C)C2 (stereo not drawn)", "NCI-H226 lung", "98.6 µM"),
]
